List of fold induction at 33.3 µM values.
Target: GAL4 DBD-CfEcR(DEF)/VP16AD-MmRXRE (Choristoneura fumiferana)
Construct: The wild-type D, E, and F domains from spruce budworm Choristoneura fumiferana EcR (“CfEcR-DEF”)
Test: 13B3 assay: luciferase reporter gene induction in stable CHO clone 13B3
Assay type: cell-based
Conditions: 48 h, read-out: Fold Induction Average, 13B3 assay
Experimental: CHO cells were transiently transfected with transcription cassettes for GAL4 DBD-CfEcR(DEF) and for VP16AD-MmRXRF controlled by SV40e promoters. Stably transfected cells were selected using Hygromycin. […] Luciferase reporter gene expression was measured 48 h after cell treatment using Bright-Glo™ Luciferase Assay System from Promega (E2650). Luminescence was detected at room temperature using a Dynex MLX microtiter plate luminometer. […]
Reported Metric: fold induction at 33.3 µM

>>> reported_measurement("COc1cccc(C(=O)NN2C(c3ccccc3)=NOC2(C)C)c1C")
3.3
>>> reported_measurement("CCc1ccc(C(=O)NN2C(c3cc(C)cc(C)c3)=NOC2(C)C)cc1")
16.8
>>> reported_measurement("CCc1ccc(C(=O)NN2C(c3ccccc3OC)=NOC2(C)C)cc1")
0.9
>>> reported_measurement("CCc1c(OC)cccc1C(=O)NN1C(c2cc(C)cc(C)c2)=NOC1(C)C")
717
>>> reported_measurement("CCc1ccc(C(=O)NN2C(c3cc(C)cc(C)c3)=NOC2(C)CC)cc1 (stereo not shown)")
129
>>> reported_measurement("CCC1(C)ON=C(c2cc(C)cc(C)c2)N1NC(=O)c1cc2ccccc2s1 (stereo not shown)")
59.9
>>> reported_measurement("CCc1c(OC)cccc1C(=O)NN1C(c2ccccc2)=NOC1(C)CC (stereo not shown)")
20.2
>>> reported_measurement("CCOC(=O)CCC(=O)NN1C(c2cc(C)cc(C)c2)=NOC1(C)CC (stereo not shown)")
0.4
>>> reported_measurement("CCc1ccc(C(=O)NN2C(c3ccccc3)=NOC23CCCC3)cc1")
82.6
>>> reported_measurement("CCc1c(OC)cccc1C(=O)NN1C(c2cc(C)cc(C)c2)=NOC1(C)CC (stereo not shown)")
478

====

biological target: Bombyx mori EcR (VBE) (Bombyx mori, UniProt P49881); construct: expressed in transfected cells; host or cells: Human HEK-293 cells, retrovirally infected, clone Z3; experiment: Z3 assay: β-galactosidase reporter gene induction in HEK-293 clone Z3 (CVBE / 6XEcRE LacZ); format: cell-based; conditions: 33 μM ligand, 48 h, RLU relative to DMSO
Sequence (P49881 86-606 limits assumed): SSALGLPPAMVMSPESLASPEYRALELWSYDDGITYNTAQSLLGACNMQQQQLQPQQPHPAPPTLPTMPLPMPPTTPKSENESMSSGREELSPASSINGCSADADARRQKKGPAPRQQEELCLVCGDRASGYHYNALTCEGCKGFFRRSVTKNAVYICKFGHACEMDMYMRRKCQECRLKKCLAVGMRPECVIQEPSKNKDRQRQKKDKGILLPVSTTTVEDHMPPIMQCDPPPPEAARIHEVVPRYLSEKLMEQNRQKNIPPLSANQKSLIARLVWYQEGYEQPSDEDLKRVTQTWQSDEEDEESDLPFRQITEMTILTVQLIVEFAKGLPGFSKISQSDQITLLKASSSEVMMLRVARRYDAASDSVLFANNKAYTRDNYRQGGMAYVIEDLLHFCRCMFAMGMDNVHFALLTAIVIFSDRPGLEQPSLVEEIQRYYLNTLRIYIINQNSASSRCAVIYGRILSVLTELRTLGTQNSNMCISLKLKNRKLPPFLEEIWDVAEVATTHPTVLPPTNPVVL
Sequence (P19793 whole entry partner): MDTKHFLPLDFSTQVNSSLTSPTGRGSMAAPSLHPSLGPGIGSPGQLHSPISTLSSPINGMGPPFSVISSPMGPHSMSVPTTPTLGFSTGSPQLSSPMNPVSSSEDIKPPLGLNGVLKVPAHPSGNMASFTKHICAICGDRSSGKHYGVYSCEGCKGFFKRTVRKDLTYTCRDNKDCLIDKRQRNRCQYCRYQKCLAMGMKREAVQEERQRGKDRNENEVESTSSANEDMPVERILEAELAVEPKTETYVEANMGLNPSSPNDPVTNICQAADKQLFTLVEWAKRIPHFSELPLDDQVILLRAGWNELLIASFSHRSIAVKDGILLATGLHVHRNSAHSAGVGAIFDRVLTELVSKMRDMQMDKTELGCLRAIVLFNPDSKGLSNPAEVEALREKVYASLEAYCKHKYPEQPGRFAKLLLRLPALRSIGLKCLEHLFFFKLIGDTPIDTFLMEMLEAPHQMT
# note: exactly 0.7 is not below, so it is no (0); use yes (1) for Fold Induction Average, Z3 assay strictly under it

>>> cat("COc1ccccc1C1=NOC(C)(C)N1NC(=O)c1ccccc1")
"no (0)"
>>> cat("COc1ccccc1C1=NOC(C)(C)N1NC(=O)c1cc2ccccc2s1")
"no (0)"
>>> cat("CCc1ccc(C(=O)NN2C(c3ccc(-c4ccccc4)cc3)=NOC2(C)C)cc1")
"yes (1)"
>>> cat("CCOC(=O)CCC(=O)NN1C(c2ccc3c(c2)OCO3)=NOC1(C)C")
"no (0)"
>>> cat("CC1(C)ON=C(c2ccc(Cl)cc2)N1NC(=O)c1cc2ccccc2s1")
"yes (1)"
>>> cat("CCc1c(OC)cccc1C(=O)NN1C(c2ccc(-c3ccccc3)cc2)=NOC1(C)C")
"yes (1)"
>>> cat("COc1ccccc1C1=NOC(C)(C)N1NC(=O)Cc1ccccc1")
"no (0)"
>>> cat("CC1(C)ON=C(c2cccc(C(F)(F)F)c2)N1NC(=O)c1cc2ccccc2s1")
"yes (1)"
>>> cat("Cc1cc(C)cc(C2=NOC3(CCOCC3)N2NC(=O)COc2ccccc2)c1")
"no (0)"
>>> cat("CC1(C)ON=C(c2ccc(Cl)cc2)N1NC(=O)COCc1ccccc1")
"no (0)"
>>> cat("CC1(C)ON=C(c2ccc(Cl)cc2)N1NC(=O)C(F)(F)C(F)(F)Cl")
"yes (1)"
>>> cat("COc1ccccc1C1=NOC(C)(C)N1NC(=O)COc1ccccc1")
"no (0)"
>>> cat("CC1(C)ON=C(c2ccc(OC(F)(F)F)cc2)N1NC(=O)COCc1ccccc1")
"yes (1)"
>>> cat("CC1(C)ON=C(c2ccc(OC(F)(F)F)cc2)N1NC(=O)Cc1ccccc1")
"yes (1)"
>>> cat("Cc1cc(C)cc(C2=NOC(C)(C)N2NC(=O)c2ccccc2[N+](=O)[O-])c1")
"no (0)"

====

test system: Cabbage Looper; experiment: Insect toxicity feeding bioassay, CL; type: in vivo; conditions: in vivo
Reported Metric: Insect Toxicity LC50, CL (ppm)

>>> reported_measurement("CCc1ccc(C(=O)NN2C(c3ccccc3)=NOC23CCCC3)cc1")
23
>>> reported_measurement("CCc1ccc(C(=O)NN2C(c3cc(C)cc(C)c3)=NOC2(C)CC)cc1 (stereo not shown)")
17
>>> reported_measurement("CCc1c(OC)cccc1C(=O)NN1C(c2cc(C)cc(C)c2)=NOC1(C)CC (stereo not shown)")
4.7
>>> reported_measurement("CCc1c(OC)cccc1C(=O)NN1C(c2cc(C)cc(C)c2)=NOC1(C)C")
47

====

target: GAL4 DBD-CfEcR(DEF)/VP16AD-MmRXRE (Choristoneura fumiferana, UniProt O77240); construct: The wild-type D, E, and F domains from spruce budworm Choristoneura fumiferana EcR (“CfEcR-DEF”); test: 13B3 assay: luciferase reporter gene induction in stable CHO clone 13B3; format: cell-based
Reported Metric: EC50

>>> reported_measurement("CCc1ccc(C(=O)NN2C(c3ccccc3)=NOC23CCCC3)cc1")
"> 33.3 µM"
>>> reported_measurement("CCc1c(OC)cccc1C(=O)NN1C(c2ccccc2)=NOC1(C)CC (stereo not drawn)")
"> 33.3 µM"
>>> reported_measurement("CCOC(=O)CCC(=O)NN1C(c2cc(C)cc(C)c2)=NOC1(C)CC (stereo not drawn)")
"> 33.3 µM"

====

EC50 values for the compounds below.
target: GAL4 DBD (1-147)-CfEcR(DEF)/VP16AD-βRXREF-LmUSPEF (Choristoneura fumiferana); construct: The wild-type D, E, and F domains from spruce budworm Choristoneura fumiferana EcR (“CfEcR-DEF”); assay: cell-based
Reported Metric: EC50

>>> reported_measurement("CCc1c(OC)cccc1C(=O)NN1C(c2cc(C)cc(C)c2)=NOC12CCCC2")
"3.42 µM"
>>> reported_measurement("CCc1c(OC)cccc1C(=O)NN1C(c2cc(C)cc(C)c2)=NOC1(C)C")
"8.35 µM"
>>> reported_measurement("CCc1ccc(C(=O)NN2C(c3cc(C)cc(C)c3)=NOC23CCCC3)c(F)c1")
"~5 µM"
>>> reported_measurement("COc1cccc(C(=O)NN2C(c3cc(C)cc(C)c3)=NOC23CCc2ccccc2C3)c1C (centres unmarked)")
"> 33 µM"
>>> reported_measurement("CCc1ccc(C(=O)NN2C(c3cccc(C(F)(F)F)c3)=NOC2(C)C)cc1")
"> 33 µM"
>>> reported_measurement("CCc1c(OC)cccc1C(=O)NN1C(c2ccc(OC(F)(F)F)cc2)=NOC1(C)C")
"> 33 µM"
>>> reported_measurement("Cc1cc(C)cc(C2=NOC3(CCOCC3)N2NC(=O)c2ccccc2)c1")
"> 33 µM"
>>> reported_measurement("COc1cccc(C(=O)NN2C(c3cc(C)cc(C)c3)=NOC2(C)C)c1C")
"~20 µM"
>>> reported_measurement("CCc1ccc(C(=O)NN2C(c3cc(C)cc(C)c3)=NOC23CCOCC3)cc1")
"> 33 µM"
>>> reported_measurement("CCc1ccc(C(=O)NN2C(c3ccc(OC(F)(F)F)cc3)=NOC2(C)C)cc1")
"> 33 µM"
>>> reported_measurement("Cc1cc(C)cc(C2=NOC(C)(C)N2NC(=O)c2ccc(Cl)cc2)c1")
"> 33 µM"
>>> reported_measurement("CCc1c(OC)cccc1C(=O)NN1C(c2cc(C)cc(C)c2)=NOC1(C)CC (centres unmarked)")
"3.31 µM"
>>> reported_measurement("CCc1c(OC)cccc1C(=O)NN1C(c2ccc(Cl)cc2)=NOC1(C)C")
"~20 µM"
>>> reported_measurement("COc1cccc(C(=O)NN2C(c3ccccc3)=NOC2(C)C)c1C")
"> 33 µM"
>>> reported_measurement("CCc1c(OC)cccc1C(=O)NN1C(c2ccccc2)=NOC12CCOCC2")
"> 33 µM"
>>> reported_measurement("CCc1c(C(=O)NN2C(c3ccccc3)=NOC2(C)C)ccc2c1OCCO2")
"~20 µM"
>>> reported_measurement("CCc1c(OC)cccc1C(=O)NN1C(c2ccccc2OC)=NOC1(C)C")
"~20 µM"
>>> reported_measurement("CCc1c(OC)cccc1C(=O)NN1C(c2ccc3c(c2)OCO3)=NOC1(C)C")
"> 33 µM"
>>> reported_measurement("CCC1(C)ON=C(c2ccccc2)N1NC(=O)c1ccccc1 (centres unmarked)")
"> 33 µM"
>>> reported_measurement("CCc1ccc(C(=O)NN2C(c3cc(C)cc(C)c3)=NOC2(C)CC)cc1 (centres unmarked)")
"~20 µM"
>>> reported_measurement("CCc1c(OC)cccc1C(=O)NN1C(c2ccc(OC)cc2OC)=NOC1(C)C")
"> 33 µM"
>>> reported_measurement("CCc1ccc(C(=O)NN2C(c3ccccc3)=NOC23CCCC3)c(F)c1")
"3.89 µM"
>>> reported_measurement("CCc1ccc(C(=O)NN2C(c3cc(C)cc(C)c3)=NOC23CCCC3)cc1")
"~20 µM"
>>> reported_measurement("CCc1ccc(C(=O)NN2C(c3ccccc3OC)=NOC2(C)C)cc1")
"> 33 µM"
>>> reported_measurement("CCc1c(OC)cccc1C(=O)NN1C(c2ccccc2)=NOC1(C)CC (centres unmarked)")
"~20 µM"
>>> reported_measurement("CCc1ccc(C(=O)NN2C(c3ccccc3)=NOC23CCCC3)cc1")
"~20 µM"
>>> reported_measurement("CCc1ccc(C(=O)NN2C(c3cc(C)cc(C)c3)=NOC2(C)C)cc1")
"> 33 µM"
>>> reported_measurement("CCc1c(C(=O)NN2C(c3cc(C)cc(C)c3)=NOC2(C)CC)ccc2c1OCCO2 (centres unmarked)")
"3.57 µM"
>>> reported_measurement("CCc1ccc(C(=O)NN2C(c3ccc4c(c3)OCO4)=NOC2(C)C)cc1")
"> 33 µM"
>>> reported_measurement("CCc1c(OC)cccc1C(=O)NN1C(c2ccccc2)=NOC12CCCC2")
"7.16 µM"
>>> reported_measurement("CCc1ccc(C(=O)NN2C(c3ccccc3)=NOC2(C)C)cc1")
"> 33 µM"
>>> reported_measurement("CCc1ccc(C(=O)NN2C(c3cc(C)cc(C)c3)=NOC2(C)CC)c(F)c1 (centres unmarked)")
"~10 µM"
